Exercise: state measured folding stability dG unfold for each of the sequences provided.
- experiment-notes: folding stability dG unfold from chymotrypsin proteolysis; higher = more stable
// return numeric value only (unit: kcal/mol, not printed)

# query: folding stability dG unfold of entry SAGKKKTVTIYLRVETPEEARKLVEELAKKLGAEVTSVEIEKVDGKYYVTVTIKVDGKEIKIVIEFEPSAGG [r19_262_TrROS_Hall]
3.03

# query: folding stability dG unfold of entry SAGGSAGPEITPPVVVVTFTFKFPDGKTIEIPTTDLEEGEKEIEKIKKPLLEKKNIELVKVTTKPVSAGGSA [r15_140_JUSTAS]
-0.389

# query: folding stability dG unfold of entry SAGGSAGGSKTVTLTLTLPGKKITFTLTEDGTVRMTVYNEKTGEKVKEITVPAKNLEELLKALSAGGSAGGS [r20_129_TrROS_Hall]
4.63
